- Test system: human Factor XI mRNA
- Assay: Antisense inhibition in HepG2 cells by microwalk gapmers, 8,000 nM, electroporation (Example 14)
- Assay type: cell-based
- Cond: HepG2 cells, 8,000 nM
In the oligonucleotide strings, read from the 5' end, every base follows the letter of its sugar. An asterisk marks phosphorothioate; unmarked linkages are phosphodiester. Other units and linkages are bracketed, terminal groups are in braces. A string of capitals states the bases alone. e = 2'-O-(2-methoxyethyl) (MOE); [5mC] = 5-methylcytosine; d = 2'-deoxy (DNA)
Readout label: Percent inhibition of human Factor XI mRNA levels

416852 (antisense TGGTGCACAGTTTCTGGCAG; 5-10-5 gapmer, wing sugar chemistry not given here, further chemistry not given here) [compound 416852] :: 87%
416857 (antisense e[5mC]*eG*eG*e[5mC]*eA*dT*dT*dG*dG*dT*dG*d[5mC]*dA*d[5mC]*dA*eG*eT*eT*eT*e[5mC]) [compound 416857] :: 91%
445523 (antisense eT*eG*e[5mC]*eA*e[5mC]*dA*dG*dT*dT*dT*d[5mC]*dT*dG*eG*e[5mC]*eA*eG*eG) [compound 445523] :: 73%
412224 (antisense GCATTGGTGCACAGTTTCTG; sugars from the 5' end e5 d10 e5, backbone and methylation of C not given here) [compound 412224] :: 84%
416866 (antisense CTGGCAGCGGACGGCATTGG; 5-10-5 gapmer, wing sugar chemistry not given here, further chemistry not given here) [compound 416866] :: 84%

---

The following substances are shown together with reported Inhibition of Factor XI protein relative to the PBS control values.
- Tested on: Factor XI protein
- Assay: Cynomolgus monkeys: plasma Factor XI protein ELISA (Example 30)
- Type: in vivo
- Cond: 25 mg/kg s.c.; plasma ELISA; Day −14
In the oligonucleotide strings, read from the 5' end, every base follows the letter of its sugar. An asterisk marks phosphorothioate; unmarked linkages are phosphodiester. Other units and linkages are bracketed, terminal groups are in braces. A string of capitals states the bases alone. e = 2'-O-(2-methoxyethyl) (MOE); [5mC] = 5-methylcytosine; d = 2'-deoxy (DNA)
Readout label: Inhibition of Factor XI protein relative to the PBS control (%)

445531 (antisense eG*eG*e[5mC]*eA*eT*dT*dG*dG*dT*dG*d[5mC]*dA*d[5mC]*eA*eG*eT*eT*eT) [compound 445531] :: 0
445522 (antisense eG*e[5mC]*eA*e[5mC]*eA*dG*dT*dT*dT*d[5mC]*dT*dG*dG*e[5mC]*eA*eG*eG*e[5mC]) [compound 445522] :: 2
416850 (antisense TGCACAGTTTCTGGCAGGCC; 5-10-5 gapmer, wing sugar chemistry not given here, further chemistry not given here) [compound 416850] :: 0

---

The following substances are shown together with reported percent inhibition of Factor XI mRNA values.
- Test system: human Factor XI mRNA
- Assay: Dose-dependent inhibition and IC50 in HepG2 cells, microwalk gapmers, electroporation (Example 16)
- Type: cell-based
- Cond: electroporation, 6,000 nM
In the oligonucleotide strings, read from the 5' end, every base follows the letter of its sugar. An asterisk marks phosphorothioate; unmarked linkages are phosphodiester. Other units and linkages are bracketed, terminal groups are in braces. A string of capitals states the bases alone. e = 2'-O-(2-methoxyethyl) (MOE); [5mC] = 5-methylcytosine; d = 2'-deoxy (DNA)
Readout label: percent inhibition of Factor XI mRNA (%)

445531 (antisense eG*eG*e[5mC]*eA*eT*dT*dG*dG*dT*dG*d[5mC]*dA*d[5mC]*eA*eG*eT*eT*eT) [compound 445531] :: 91
445522 (antisense eG*e[5mC]*eA*e[5mC]*eA*dG*dT*dT*dT*d[5mC]*dT*dG*dG*e[5mC]*eA*eG*eG*e[5mC]) [compound 445522] :: 81
449707 (antisense e[5mC]*eA*e[5mC]*eA*dG*dT*dT*dT*d[5mC]*dT*dG*dG*e[5mC]*eA*eG*eG) [compound 449707] :: 85
449709 (antisense eG*e[5mC]*eA*e[5mC]*dA*dG*dT*dT*dT*d[5mC]*dT*dG*dG*d[5mC]*eA*eG*eG*e[5mC]) [compound 449709] :: 92
416850 (antisense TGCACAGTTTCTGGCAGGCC; 5-10-5 gapmer, wing sugar chemistry not given here, further chemistry not given here) [compound 416850] :: 90
449711 (antisense eA*e[5mC]*dA*dG*dT*dT*dT*d[5mC]*dT*dG*dG*d[5mC]*eA*eG) [compound 449711] :: 32
449708 (antisense eA*e[5mC]*eA*dG*dT*dT*dT*d[5mC]*dT*dG*dG*e[5mC]*eA*eG) [compound 449708] :: 61
449710 (antisense e[5mC]*eA*e[5mC]*dA*dG*dT*dT*dT*d[5mC]*dT*dG*dG*d[5mC]*eA*eG*eG) [compound 449710] :: 82
416858 (antisense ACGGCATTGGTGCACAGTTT; 5-10-5 gapmer, wing sugar chemistry not given here, further chemistry not given here) [compound 416858] :: 90
